Cited source for all entries: patent US6525059B1

Target: human p38 kinase alpha (Homo sapiens, UniProt Q16539)
Construct: The coding region of the human p38a cDNA was obtained by PCR-amplification from RNA isolated from the human monocyte cell line THP.1; GST (N); made in house; host or cells: E. coli DH10B
Sequence (Q16539 whole entry): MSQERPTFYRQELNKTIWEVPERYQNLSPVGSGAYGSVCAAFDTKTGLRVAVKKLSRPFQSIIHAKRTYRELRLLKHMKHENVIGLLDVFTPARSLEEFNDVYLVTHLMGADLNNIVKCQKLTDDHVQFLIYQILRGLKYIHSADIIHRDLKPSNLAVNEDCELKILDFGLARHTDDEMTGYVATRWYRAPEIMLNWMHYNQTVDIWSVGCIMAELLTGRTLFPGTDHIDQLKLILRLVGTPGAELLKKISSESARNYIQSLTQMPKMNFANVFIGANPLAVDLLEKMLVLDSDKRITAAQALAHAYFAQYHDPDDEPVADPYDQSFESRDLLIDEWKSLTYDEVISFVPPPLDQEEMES
Assay: p38 kinase in vitro assay, phosphorylation of biotinylated PHAS-I with gamma 32P-ATP
Format: biochemical
Conditions: read-out: P38 alpha kinase IC50
pIC50: −log10 of the molar value.
measurement-type: pIC50

a = C[C@@H](NC(=O)Nc1cccc(F)c1)c1[nH]nc(-c2ccc(F)cc2)c1-c1ccncc1
b = CC(=O)OCC(=O)N[C@H](C)c1[nH]nc(-c2ccc(F)cc2)c1-c1ccncc1
stdin: When a and b are compared, which has the higher number for pIC50? Let me know the label of the one you choose.
stdout: a

A = C[C@@H](NC(=O)c1cc(Cl)cc(Cl)c1)c1[nH]nc(-c2ccc(F)cc2)c1-c1ccncc1
B = O=C(NCc1[nH]nc(-c2ccc(F)cc2)c1-c1ccncc1)c1cccc2ccccc12
C = CC(C)NC(=O)NCc1[nH]nc(-c2ccc(F)cc2)c1-c1ccncc1
stdin: Hello, I need these entries ordered by pIC50, highest reading first. Thanks! # respond with the labels, arranged in the requested order
stdout: A, C, B

* * *

Test system: TNF alpha
Assay: Mouse model of LPS-induced TNF alpha production
Format: in vivo
Conditions: Mus musculus; 30 mpk oral gavage, -6h before LPS; read-out: Mouse LPS Model % TNF inhib @ dose @ predose time
measurement-type: inhibition in vivo at 30 mg/kg (%)
Answer with a number only, understood to be in %.

Solved cases below.
C[C@@H](NS(=O)(=O)c1ccc(F)cc1)c1[nH]nc(-c2ccc(F)cc2)c1-c1ccncc1 [Example B-0385]; 30
CC(Oc1ccccc1)C(=O)NCc1[nH]nc(-c2ccc(F)cc2)c1-c1ccncc1 (stereo not drawn) [Example B-0087]; 38
O=C(COc1ccc(Cl)cc1)NCc1[nH]nc(-c2ccc(F)cc2)c1-c1ccncc1 [Example B-0093]; 30

stdin: Can you look up inhibition in vivo at 30 mg/kg on TNF alpha for C[C@@H](NC(=O)c1ccccc1I)c1[nH]nc(-c2ccc(F)cc2)c1-c1ccncc1 [Example B-0354] ?
stdout: 51

stdin: Can you look up inhibition in vivo at 30 mg/kg on TNF alpha for C[C@@H](NC(=O)c1ccccc1C(F)(F)F)c1[nH]nc(-c2ccc(F)cc2)c1-c1ccncc1 [Example B-0368] ?
stdout: 37

stdin: Can you look up inhibition in vivo at 30 mg/kg on TNF alpha for COc1ccc(S(=O)(=O)NCc2[nH]nc(-c3ccc(F)cc3)c2-c2ccncc2)cc1 [Example B-0117] ?
stdout: 30

* * *

Consider the following compounds and their measured melting point readings.

CN1CCN(c2[nH]nc(C3CCCCC3)c2-c2ccncc2)CC1 [Example A-485]; > 300 °C (dec.)
Clc1ccc(-c2n[nH]c(OC3CCOC3)c2-c2ccncc2)cc1 (stereo not shown) [Example A-443]; > 300 °C
Fc1ccc(-c2[nH]ncc2-c2ccncn2)cc1 [Example A-312]; 191.47 °C

stdin: # query: melting point of entry Fc1ccc(-c2[nH]ncc2-c2ccnc(Nc3ccccc3F)n2)cc1 [Example A-325]
stdout: 239 to 240 °C

* * *

Molecular target: human p38 kinase alpha (Homo sapiens)
Construct: The coding region of the human p38a cDNA was obtained by PCR-amplification from RNA isolated from the human monocyte cell line THP.1; GST (N); made in house; host or cells: E. coli DH10B
Assay: p38 kinase in vitro assay, phosphorylation of biotinylated PHAS-I with gamma 32P-ATP
Type: biochemical
Details: @ 1.0 uM; read-out: P38 alpha kinase % inhib @ conc.
measurement-type: inhibition at 1 µM (%)

Solved cases below.
O=S(=O)(NCc1[nH]nc(-c2ccc(F)cc2)c1-c1ccncc1)c1cccs1; 79
O=S(=O)(NCc1[nH]nc(-c2ccc(F)cc2)c1-c1ccncc1)c1ccc2ccccc2c1; 66

I = Cc1cc(C)c(C(=O)NCc2[nH]nc(-c3ccc(F)cc3)c2-c2ccncc2)c(C)c1
II = CC(C)(C)c1ccc(S(=O)(=O)NCc2[nH]nc(-c3ccc(F)cc3)c2-c2ccncc2)cc1
stdin: Dear colleague, could you let me know whether I or II has the lower recorded inhibition at 1 µM? Thanks. Let me know the label of the one you choose.
stdout: II
(II: 43%, I: 88%)

1 = O=C(NCc1[nH]nc(-c2ccc(F)cc2)c1-c1ccncc1)c1ccccc1F
2 = CC(C)S(=O)(=O)NCc1[nH]nc(-c2ccc(F)cc2)c1-c1ccncc1
stdin: Dear colleague, could you let me know whether 1 or 2 has the lower recorded inhibition at 1 µM? Thanks. Let me know the label of the one you choose.
stdout: 2
(2: 62%, 1: 92%)
